Target: tubulin (Sus scrofa, UniProt P02550+P02554)
Construct: Tubulin is purified from pig brain according to published methods
Sequence (P02550 whole entry): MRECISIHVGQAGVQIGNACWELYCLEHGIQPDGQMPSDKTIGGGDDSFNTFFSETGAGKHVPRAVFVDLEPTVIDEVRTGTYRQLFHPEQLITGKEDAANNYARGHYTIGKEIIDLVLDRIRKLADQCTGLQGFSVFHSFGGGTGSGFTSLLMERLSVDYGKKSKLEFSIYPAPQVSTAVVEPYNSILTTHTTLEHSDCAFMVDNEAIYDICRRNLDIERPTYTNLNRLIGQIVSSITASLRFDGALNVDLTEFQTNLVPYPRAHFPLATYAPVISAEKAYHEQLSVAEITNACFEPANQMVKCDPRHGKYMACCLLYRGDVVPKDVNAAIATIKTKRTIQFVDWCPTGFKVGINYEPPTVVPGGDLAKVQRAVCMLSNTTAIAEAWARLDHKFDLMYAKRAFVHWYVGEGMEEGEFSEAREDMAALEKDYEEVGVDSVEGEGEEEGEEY
Sequence (P02554 whole entry): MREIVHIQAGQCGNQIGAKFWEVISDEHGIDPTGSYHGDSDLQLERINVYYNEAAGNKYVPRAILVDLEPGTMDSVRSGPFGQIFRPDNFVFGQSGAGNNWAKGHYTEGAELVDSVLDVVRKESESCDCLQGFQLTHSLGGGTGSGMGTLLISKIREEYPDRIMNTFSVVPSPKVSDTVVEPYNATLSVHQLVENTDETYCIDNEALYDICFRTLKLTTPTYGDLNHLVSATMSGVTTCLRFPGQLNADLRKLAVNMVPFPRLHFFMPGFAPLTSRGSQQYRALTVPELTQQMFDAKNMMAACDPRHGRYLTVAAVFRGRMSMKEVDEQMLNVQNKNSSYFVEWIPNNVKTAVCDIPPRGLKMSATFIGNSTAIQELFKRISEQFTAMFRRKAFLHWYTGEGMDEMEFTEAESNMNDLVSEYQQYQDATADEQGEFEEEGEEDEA
Test: Evaluation of the inhibition of tubulin polymerization (turbidimetry)
Details: tubulin 10 μm (1 mg/ml), 37° C., turbidity at 350 nm; concentration that inhibits the rate of polymerization by 50%; read-out: Inhibition of tubulin polymerization IC 50 (μm)
pIC50: −log10 of the molar value.
Measured Quantity: pIC50

In: Could you share which pIC50 value was measured for `Cc1ccc(-n2nc(C)cc2C(=O)N2CCN(c3cccc(C)c3)CC2)cc1` ?
Out: 5.15

In: Could you share which pIC50 value was measured for `Cc1cccc(-n2nc(C)cc2C(=O)N2CCN(c3ccccc3C)CC2)c1` ?
Out: 5.30

In: Could you share which pIC50 value was measured for `Cc1ccc(-n2nc(C)cc2C(=O)N2CCN(c3cccc(Cl)c3)CC2)cc1` ?
Out: 5.35

I. COc1cc(OC)cc(N2CCN(C(=O)c3cc(-c4ccc(C(F)(F)F)cc4)nn3-c3ccccc3)CC2)c1
II. Cc1cc(C(=O)N2CCN(c3cccc([N+](=O)[O-])c3)CC2)n(-c2ccccc2)n1
In: I'd appreciate it if you could identify which of I and II has the greater pIC50. Please respond with the label that marks your chosen entry.
Out: II
(II: 6.10, I: 5.47)

1. CCOC(=O)/C=C/c1cc(C(=O)N2CCN(c3cc(OC)cc(OC)c3)CC2)n(-c2ccccc2)n1
2. COc1cccc(N2CCN(C(=O)c3cc(C)nn3-c3cccc(OC)c3)CC2)c1
In: I would appreciate it if you could say which entry, 1 or 2 , has the lower pIC50 value. Please respond with the label that marks your chosen entry.
Out: 1

All values here come from patent US20050130989A1.
